- System: PPARg DBDmut:RXRa IVT, anti-PPARg (DBD mutation: PPARg1 K132A/R137A, NR concentration 270 nM, RXRa partner concentration 90 nM)
- protocol-text: PBM binding z-score (relative to random genomic background probes); higher = stronger binding; sequences stand for … in GC…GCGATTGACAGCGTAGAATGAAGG
# maps each entry to its PBM binding z-score
property-measured: PBM binding z-score

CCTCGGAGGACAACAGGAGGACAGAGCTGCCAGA | -0.847
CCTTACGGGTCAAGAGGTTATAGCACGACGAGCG | 0.866
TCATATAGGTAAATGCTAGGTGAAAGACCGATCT | 1.16
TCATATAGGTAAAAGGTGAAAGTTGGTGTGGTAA | 1.91
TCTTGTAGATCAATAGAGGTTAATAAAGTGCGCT | 0.628
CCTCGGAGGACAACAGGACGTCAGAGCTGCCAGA | -0.661
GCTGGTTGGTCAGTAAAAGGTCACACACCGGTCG | 0.438
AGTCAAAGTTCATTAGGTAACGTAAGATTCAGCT | 1.72
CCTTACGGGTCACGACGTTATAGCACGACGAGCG | 0.866
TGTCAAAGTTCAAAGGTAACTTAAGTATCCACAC | 1.49
TAACCTAGGTCAGATCGGGCCAGTATACGCTATA | 0.884
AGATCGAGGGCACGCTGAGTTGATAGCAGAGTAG | 1.3
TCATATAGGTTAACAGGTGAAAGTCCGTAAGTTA | 2.16
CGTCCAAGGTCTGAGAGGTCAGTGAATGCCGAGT | -0.424
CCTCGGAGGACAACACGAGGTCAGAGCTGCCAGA | -0.876
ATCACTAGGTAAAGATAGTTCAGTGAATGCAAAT | 1.22
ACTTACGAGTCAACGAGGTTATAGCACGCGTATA | 1.03
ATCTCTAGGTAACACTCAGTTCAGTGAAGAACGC | 1.8
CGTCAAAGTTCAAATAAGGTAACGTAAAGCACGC | 0.83
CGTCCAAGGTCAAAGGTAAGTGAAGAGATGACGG | 0.556
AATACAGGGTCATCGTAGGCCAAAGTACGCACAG | 3.81
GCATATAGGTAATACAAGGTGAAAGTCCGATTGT | 1.3
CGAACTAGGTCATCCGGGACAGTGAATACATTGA | 3.68
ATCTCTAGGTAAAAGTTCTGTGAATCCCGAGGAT | 1.22
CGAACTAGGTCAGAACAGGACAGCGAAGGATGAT | 2.58
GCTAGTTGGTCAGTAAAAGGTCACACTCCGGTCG | -0.175
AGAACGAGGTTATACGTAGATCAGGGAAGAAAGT | 0.863
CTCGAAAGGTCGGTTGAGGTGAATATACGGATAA | 0.319
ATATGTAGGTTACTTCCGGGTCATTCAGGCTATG | 2.25
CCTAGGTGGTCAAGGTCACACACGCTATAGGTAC | 0.368
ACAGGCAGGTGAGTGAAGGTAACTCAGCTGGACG | -0.867
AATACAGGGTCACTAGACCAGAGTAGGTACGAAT | 1.64
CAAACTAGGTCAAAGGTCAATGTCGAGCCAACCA | 5.2
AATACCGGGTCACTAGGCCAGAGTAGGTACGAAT | 0.988
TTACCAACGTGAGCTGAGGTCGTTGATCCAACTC | -0.101
